# reported MIC; entries follow
Test system: Salmonella typhimurium
Test: MIC, agar dilution, Salmonella typhimurium
Assay type: cell-based
Conditions: Salmonella enterica, TYPHIMURIUM / UC6162; strain UC6162; read-out: MIC
Quick note: give the figure in µg/mL, leave out the unit.

* CCCSSCC1=C(C(=O)O)N2C(=O)[C@@H](NC(=O)/C(=N\OC)c3csc(N)n3)[C@H]2SC1 | 16
* CO/N=C(\C(=O)N[C@@H]1C(=O)N2C(C(=O)O)=C(CSSc3ccccc3)CS[C@H]12)c1csc(N)n1 | 16

Dear colleague, I am looking for the recorded MIC of the following compound: CCCCSSCC1=C(C(=O)O)N2C(=O)[C@@H](NC(=O)/C(=N\OC)c3csc(N)n3)[C@H]2SC1
16

For the compound shown here, CO/N=C(\C(=O)N[C@@H]1C(=O)N2C(C(=O)O)=C(CSSC3CCCCC3)CS[C@H]12)c1csc(N)n1 , give the reported MIC.
16

Record request: MIC value, item CO/N=C(\C(=O)N[C@@H]1C(=O)N2C(C(=O)O)=C(CO)CS[C@H]12)c1csc(N)n1 [desacetyl cefotoxime, reference compound]
0.13

###

Test system: Micrococcus luteus
Test: MIC, agar dilution, Micrococcus luteus
Assay type: cell-based
Settings: Micrococcus luteus; strain UC130; read-out: MIC
Method: Stock solution of each test antibiotic compound were prepared to have a concentration of 2 mg. of the test compound per milliliter in sterile water of 0.1M ammonium acetate solution. The amount of each compound used was adjusted for base compound activity as calculated from the purity data for the selected batch of compound. The dilution procedure described by Washington and Sutter [Manual of Clinical Microbiology, 3rd, Edit. […]
Assay readout: MIC

Requested field: MIC. Item: CCCCSSCC1=C(C(=O)O)N2C(=O)[C@@H](NC(=O)/C(=N\OC)c3csc(N)n3)[C@H]2SC1
≤ 0.06 µg/mL

###

Let's look at some molecules and their measured MIC.
Test system: Staphylococcus aureus
Experiment: MIC, agar dilution, Staphylococcus aureus
Assay type: cell-based
Settings: Staphylococcus aureus; strain UC9203; read-out: MIC

Would you please look over these solved cases?
- CO/N=C(\C(=O)N[C@@H]1C(=O)N2C(C(=O)O)=C(CSCC(N)=O)CS[C@H]12)c1csc(N)n1: 4 µg/mL
- CO/N=C(\C(=O)N[C@@H]1C(=O)N2C(C(=O)O)=C(CSSCc3ccco3)CS[C@H]12)c1csc(N)n1: 1 µg/mL
- CO/N=C(\C(=O)N[C@@H]1C(=O)N2C(C(=O)O)=C(CSSCc3ccccc3)CS[C@H]12)c1csc(N)n1: 1 µg/mL

Need MIC of CO/N=C(\C(=O)N[C@@H]1C(=O)N2C(C(=O)O)=C(CSSc3ccc(Cl)cc3)CS[C@H]12)c1csc(N)n1 , thanks.
2 µg/mL

I'd like to know its MIC. The molecule in question is CO/N=C(\C(=O)N[C@@H]1C(=O)N2C(C(=O)O)=C(CSSC)CS[C@H]12)c1csc(N)n1
2 µg/mL

###

Each item that follows carries a reported MIC.
Test system: Micrococcus luteus
Assay: MIC, agar dilution, Micrococcus luteus
Assay type: cell-based
Details: Micrococcus luteus; strain UC130; read-out: MIC
Please state the figure in µg/mL; there is no need to write the unit.

- CO/N=C(\C(=O)N[C@@H]1C(=O)N2C(C(=O)O)=C(CSSC)CS[C@H]12)c1csc(N)n1: 0.13
- CCC(C)SSCC1=C(C(=O)O)N2C(=O)[C@@H](NC(=O)/C(=N\OC)c3csc(N)n3)[C@H]2SC1 (stereo partly shown): 0.13

What measured MIC goes with CO/N=C(\C(=O)N[C@@H]1C(=O)N2C(C(=O)O)=C(CSC(=O)c3ccco3)CS[C@H]12)c1csc(N)n1 [ceftiofur, reference compound] ?
0.25

Which MIC value belongs to CCCSSCC1=C(C(=O)O)N2C(=O)[C@@H](NC(=O)/C(=N\OC)c3csc(N)n3)[C@H]2SC1 ?
0.5

Sample CO/N=C(\C(=O)N[C@@H]1C(=O)N2C(C(=O)O)=C(CSCC(N)=O)CS[C@H]12)c1csc(N)n1 — what was its MIC?
0.25
